# EXPERIMENTAL_SYSTEM: DdrO (Deinococcus radiodurans R1 (ATCC 13939)) (UniProt Q9RRB8)
# Sequence: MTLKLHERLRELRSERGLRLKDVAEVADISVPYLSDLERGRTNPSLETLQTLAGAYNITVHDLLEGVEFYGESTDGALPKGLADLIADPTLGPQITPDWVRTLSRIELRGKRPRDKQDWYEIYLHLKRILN
# TEST_PROTOCOL: EMSA
# TEST_CONDITIONS: 150 mM NaCl, 20 mM Tris-HCl pH 8.0, 5 mM MgCl2, 1.6 uM DNA, 0-16 uM protein, 30 C; 12% TB-PAGE
READOUT: binding

# MACROMOLECULE_SEQUENCE, binding
rows = [
    ("TAAAAAGGCCAGGGGTAGCACTCTGGCATAAGGAAAACCCAGCTTCGGCGGTCTTTGTGCCTTTGCCAGCTTTCACGGCGAAAGAAACGTCCAGATGACAGTGACACCCAAAGTGCACCCGGCGCCGTTCAGGGCACAGGTGCGGACTACAGTGGGGCCGTGAC (double strand) [PpprA- (no RDRM)]", "no binding"),
    ("TACTGCGGTCTGACGATGACCTCGTCCTTATCTGCGGGAGCCTCTATCTGCTCGGCGAACTGCGTCCTTTGCTGCTGGGCGAGCAGTCGGAAGGCCACGAACGCTGGCAATAGCCACAGCAGCGGCCAATTTCTGGTTTCGAAACAGGAATAAGGCAAGTTGACTGCCCTCATTCTGTATTGACCGTAGCAAGGAGCGGTGTTACACT (double strand) [PddrO]", "binds"),
    ("GCACTGCGGCTTGCAGCGCCGGGTGACCATGCCCAGCCTCCCTGCTCCAGCGCCCGCCCGCAAACCCGAGCGGCGGCTGTTCGGGCTCTTGCGAATCTGAAGGTCTTGGTGCCCGGCCTCTGCTGGGAGGCGGGACACTGGCACCGGCTTCCCCGATGTG (double strand) [PddrB- (no RDRM)]", "no binding"),
    ("AGGAGCAGTTTCTTCATGAAGCCTCCAGATCAAAGGCGCACGAAGCAGGCCTGCCCCAAAGGAAGGCGGGCCTGCTGGGTTGCGTGACAGCCGGGACGTAAATAATGGCCCCAGGGTAGGGGCGGGCCGGGGGGGTGTCAAGGTACGCAGCGGGGGGCCTCCATGATTCTGCCCACAACGTAAACGCGCTATCCTGGGGAG (double strand) [PrecQ- (no RDRM)]", "no binding"),
]

Shift focus to the following entry.
Entry CCCTTGCCATACTGCCTTTATTATGCCCTGAACAGATTAAAAAGGCCAGGGGTAGCACTCTGGCATAAGGAAAACCCAGCTTCGGCGGTCTTTGTGCCTTTGCCAGCTTTCACGGCGAAAGAAACGTCCAGATGACAGTGACACCCAAAGTGCACCCGGCGCCGTTCAGGGCACAGGTGCGGACTACAGTGGGGCCGTGAC (double strand) [PpprA] : reported binding = ?
binds

---

# EXPERIMENTAL_SYSTEM: DdrO (Deinococcus radiodurans R1 (ATCC 13939))
# Sequence: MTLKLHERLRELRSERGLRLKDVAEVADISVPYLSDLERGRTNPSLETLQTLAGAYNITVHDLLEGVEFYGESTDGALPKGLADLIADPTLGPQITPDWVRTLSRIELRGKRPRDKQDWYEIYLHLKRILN
# TEST_PROTOCOL: EMSA
# TEST_CONDITIONS: 150 mM NaCl, 20 mM Tris-HCl pH 8.0, 5 mM MgCl2, 1.6 uM DNA, 0-16 uM protein, 30 C; 12% TB-PAGE
READOUT: binding

// worked examples, binding included
# MACROMOLECULE_SEQUENCE, binding
rows = [
    ("TACTGCGGTCTGACGATGACCTCGTCCTTATCTGCGGGAGCCTCTATCTGCTCGGCGAACTGCGTCCTTTGCTGCTGGGCGAGCAGTCGGAAGGCCACGAACGCTGGCAATAGCCACAGCAGCGGCCAATTTCTGGTTTCGAAACAGGAATAAGGCAAGTTGACTGCCCTCA (double strand) [PddrO- (no RDRM)]", "no binding"),
    ("TAGTAACAAGCAGAGTCAATTATGTCAATGACATAAAAGGCTCAGGCCTTCTTGGTCTTCCACTCCGGGCGGTCCTTGACCACCAGGACGCGGCGGACGTTGTCGCGCAGGCGCAGGCTGCTGGCGATGGCGGTTTCGGGGTTGCCCGAAGCCTTGATGGTGTACATCAGGTAGTAGCCTTCGCGGTCCTTGCCCACCTGG (double strand) [PdrssB]", "binds"),
    ("CAACCTCACCGGAGTATATGGGAGGACGTAACCAGTGTCTACAGGGTGCGGCCCTGAATGGGATGGGTCAAGGGAAGGTGAGGCGCGCTGCACCTTTCGGCGGACGCCCCAGTGCGCGGAGCAGCCTACCTTGCGATCATGCTGGTGTTTCT (double strand) [PrecA- (no RDRM)]", "no binding"),
    ("AGAAACACCAGCATGATCGCAAGGTAGGCTGCTCCGCGCACTGGGGCGTCCGCCGAAAGGTGCAGCGCGCCTCACCTTCCCTTGACCCATCCCATTCAGGGCCGCACCCTGTAGACACTGGTTACGTCCTCCCATATACTCCGGTGAGGTTGTTATGCTGCTAGCAGAAATCATCAGTGTGGGCACG (double strand) [PrecA (recA promoter, RDRM)]", "binds"),
    ("AACGCCAGTTGATTAAGGGGAAATGGAGAGGGGTTCGGGGCGGCCCCTGCCTGCTCTGTCGGCCAGCTTTCGGCAGAGTGGGCCCCGGCTCCGGCGCACTGACGCGGGCTAGACCCTCCCGCGCCGCCCTCCACCGCCGCCTCTACCTTCGTCCTATGCCCCG (double strand) [PddrA- (no RDRM)]", "no binding"),
    ("AGTTTAGAACAGAATAACATTACGGTCAAGACATAAAACGCCAGTTGATTAAGGGGAAATGGAGAGGGGTTCGGGGCGGCCCCTGCCTGCTCTGTCGGCCAGCTTTCGGCAGAGTGGGCCCCGGCTCCGGCGCACTGACGCGGGCTAGACCCTCCCGCGCCGCCCTCCACCGCCGCCTCTACCTTCGTCCTATGCCCCG (double strand) [PddrA]", "binds"),
]

The record that follows has no binding shown yet.
Look at this sequence and give its reported binding. GCACTGCGGCTTGCAGCGCCGGGTGACCATGCCCAGCCTCCCTGCTCCAGCGCCCGCCCGCAAACCCGAGCGGCGGCTGTTCGGGCTCTTGCGAATCTGAAGGTCTTGGTGCCCGGCCTCTGCTGGGAGGCGGGACACTGGCACCGGCTTCCCCGATGTGTTATGTTATTTACGTAAGGAGGAGGCAGATGTTGCAGATT (double strand) [PddrB]
binds
